B1: TPR t1 (parent)
chain: GACCAAUCUGCCCUCAGAGCUCGAGAACAUCUUCGGAUGCAGAGGAGGCAGGCUUCGGUGGCGCGAUAGCGCCAACGUCCUCAACCUCCAAUGCAUCCCACCACAUGAUGAUGCCUGAAGAGCCUUGGUUUUUUG

- Variants of: B1
- assay-text: polymerase ribozyme fitness, log enrichment relative to wild type (log ratio); higher = more active; in vitro selection for triplet polymerase activity
assay-endpoint: polymerase ribozyme fitness (log ratio)

{"columns": ["change", "assay-endpoint", "numeric-value"],
 "data": [
  ["G57A C62G", "polymerase ribozyme fitness (log ratio)", -3.37],
  ["C62A A68G C72U", "polymerase ribozyme fitness (log ratio)", -3.88],
  ["U33A A66G C123A", "polymerase ribozyme fitness (log ratio)", -6.2],
  ["G58A G71A C89A C123A", "polymerase ribozyme fitness (log ratio)", -3.72],
  ["A37C G45U G61C C123A", "polymerase ribozyme fitness (log ratio)", -3.45],
  ["U54A C70G", "polymerase ribozyme fitness (log ratio)", -2.37],
  ["C40A G52A C73U C104U U126A", "polymerase ribozyme fitness (log ratio)", -3.9],
  ["C15U C102U", "polymerase ribozyme fitness (log ratio)", -3.1],
  ["G19A G60A G93U", "polymerase ribozyme fitness (log ratio)", -3.84],
  ["U96C G128U", "polymerase ribozyme fitness (log ratio)", -1.67],
  ["U9G G63C G71U C79A", "polymerase ribozyme fitness (log ratio)", -5.4],
  ["G61C U78A U116G", "polymerase ribozyme fitness (log ratio)", -1.8],
  ["G47U C56G A118U G122A", "polymerase ribozyme fitness (log ratio)", -2.71],
  ["U7G A43U G47C G58U U59G C82U G110A", "polymerase ribozyme fitness (log ratio)", -5.4],
  ["A95U", "polymerase ribozyme fitness (log ratio)", -0.816],
  ["U21C G71U C86G G117A", "polymerase ribozyme fitness (log ratio)", -5.6],
  ["U78G C86G U112A C124G G135U", "polymerase ribozyme fitness (log ratio)", -1.2],
  ["G17U G39U C88U A91C G117U", "polymerase ribozyme fitness (log ratio)", -3.62],
  ["A37G G60A", "polymerase ribozyme fitness (log ratio)", -1.03],
  ["A18G A41C A43G G57U", "polymerase ribozyme fitness (log ratio)", -4.59],
  ["C72A U96A U109G", "polymerase ribozyme fitness (log ratio)", -6.14],
  ["C56U C72U C80U A90C", "polymerase ribozyme fitness (log ratio)", -2.11],
  ["G110C C124A", "polymerase ribozyme fitness (log ratio)", -3.32],
  ["G61U U87A", "polymerase ribozyme fitness (log ratio)", -0.452],
  ["G61U U109G", "polymerase ribozyme fitness (log ratio)", -4.68],
  ["A46G C56A C101G U126C", "polymerase ribozyme fitness (log ratio)", -2.14],
  ["C13A C73G", "polymerase ribozyme fitness (log ratio)", -3.11],
  ["U9G C72A A95G", "polymerase ribozyme fitness (log ratio)", 0.389],
  ["C85A U96A", "polymerase ribozyme fitness (log ratio)", -2.43],
  ["G23A G48A C86G", "polymerase ribozyme fitness (log ratio)", -6.91],
  ["C40G C70U U106A U116A G120C", "polymerase ribozyme fitness (log ratio)", -2.18],
  ["C56A C72U C104A", "polymerase ribozyme fitness (log ratio)", -1.61],
  ["C76G G93A C124G", "polymerase ribozyme fitness (log ratio)", 1.31],
  ["G48U C94U", "polymerase ribozyme fitness (log ratio)", -1.2]
]}

Source: the RNAGym collection of RNA variant scans (doi:10.1073/pnas.2313332121)
